Overview of recorded Classic ELISA (normalized to XAB1 Fab) for various binders
Biological target: T1, human IL-17A (construct not stated) (human, UniProt Q16552 24-155, limits assumed)
T1 construct: also called huIL-17A; human IL-17A biotin
T1 sequence: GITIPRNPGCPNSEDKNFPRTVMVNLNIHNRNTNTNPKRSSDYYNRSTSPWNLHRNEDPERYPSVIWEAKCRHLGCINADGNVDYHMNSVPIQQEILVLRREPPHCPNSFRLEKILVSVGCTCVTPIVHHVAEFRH
Assay: ELISA on coated huIL-17A, crude Fab extract

MB435 (Fab, V domains shown, heavy chain C-terminal Flag tag) VH: EVQLVESGGDLVQPGGSLRLSCAASGFTFSSYWMSWVRQAPGKGLEWVANIKQDGSEKYYVDSVKGRFTISRDNAKNSLYLQMNSLRAEDTAVYYCARDRGSLYYWGQGTLVTVSS VL: AIQLTQSPSSLSASVGDRVTITCRPSQGINWELAWYQQKPGKAPKLLIYDASSLENGVPSRFSGSGSGTDFTLTISSLQPEDFATYYCQQFNSYPLTFGGGTKVEIK = 2.7 ratio to XAB1 Fab
MB486 (Fab, V domains shown, heavy chain C-terminal Flag tag) VH: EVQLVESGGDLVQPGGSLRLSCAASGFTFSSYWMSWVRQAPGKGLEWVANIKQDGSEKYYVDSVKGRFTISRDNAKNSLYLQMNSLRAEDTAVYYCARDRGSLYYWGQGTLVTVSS VL: AIQLTQSPSSLSASVGDRVTITCRPSQGIWWMLAWYQQKPGKAPKLLIYDASSLENGVPSRFSGSGSGTDFTLTISSLQPEDFATYYCQQFNSYPLTFGGGTKVEIK = 1.9 ratio to XAB1 Fab

We next turn to a different binder, shown below.
The measured Classic ELISA (normalized to XAB1 Fab) associated with MB491 (Fab, V domains shown, heavy chain C-terminal Flag tag) VH: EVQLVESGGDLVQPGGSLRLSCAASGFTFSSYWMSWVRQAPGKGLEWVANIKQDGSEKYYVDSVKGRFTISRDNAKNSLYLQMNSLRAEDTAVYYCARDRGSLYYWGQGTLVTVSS VL: AIQLTQSPSSLSASVGDRVTITCRPSQGIFFWLAWYQQKPGKAPKLLIYDASSLENGVPSRFSGSGSGTDFTLTISSLQPEDFATYYCQQFNSYPLTFGGGTKVEIK reads 2.1 ratio to XAB1 Fab
